biological target: Protein translocase subunit SecA (Escherichia coli (strain K12)) (UniProt P10408); experiment: Assay to Identify E. coli SecA ATPase Inhibitors; assay type: functional; set-up: scale not given: direction of the effect not stated beside the values; details: 30 µM
Sequence (P10408 whole entry): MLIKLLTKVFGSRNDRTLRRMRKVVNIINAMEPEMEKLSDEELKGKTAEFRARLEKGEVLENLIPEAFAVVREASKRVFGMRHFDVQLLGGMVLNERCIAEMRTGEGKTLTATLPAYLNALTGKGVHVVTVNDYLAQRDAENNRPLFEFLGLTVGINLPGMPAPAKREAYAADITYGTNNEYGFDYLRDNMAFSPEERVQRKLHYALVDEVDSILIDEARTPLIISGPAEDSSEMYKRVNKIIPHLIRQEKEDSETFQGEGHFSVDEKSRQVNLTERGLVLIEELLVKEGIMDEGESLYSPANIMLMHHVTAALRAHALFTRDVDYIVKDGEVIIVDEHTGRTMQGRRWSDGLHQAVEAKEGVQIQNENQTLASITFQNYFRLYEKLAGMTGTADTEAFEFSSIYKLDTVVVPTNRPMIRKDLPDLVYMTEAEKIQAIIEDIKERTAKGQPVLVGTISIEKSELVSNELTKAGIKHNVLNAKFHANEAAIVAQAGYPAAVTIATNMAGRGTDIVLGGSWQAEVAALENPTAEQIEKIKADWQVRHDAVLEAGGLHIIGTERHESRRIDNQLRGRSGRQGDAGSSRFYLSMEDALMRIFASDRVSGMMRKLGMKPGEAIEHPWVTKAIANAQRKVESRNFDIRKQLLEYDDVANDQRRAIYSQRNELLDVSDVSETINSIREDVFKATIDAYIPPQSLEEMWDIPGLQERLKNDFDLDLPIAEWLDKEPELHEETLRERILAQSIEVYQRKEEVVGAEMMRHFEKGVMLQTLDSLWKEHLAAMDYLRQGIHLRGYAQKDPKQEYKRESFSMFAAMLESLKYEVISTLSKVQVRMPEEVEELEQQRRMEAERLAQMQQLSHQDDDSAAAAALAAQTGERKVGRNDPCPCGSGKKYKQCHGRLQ
Results with a measured potency or affinity are listed apart.
The reader will find reported Percent Effect values listed item by item below.

>  <COMPOUND>
CC(C)NS(=O)(=O)c1cc(C(=O)O)cc(-c2ccccc2CN(C)C)c1

>  <RECORDED_MEASUREMENT>
-5.51%

$$$$
>  <COMPOUND>
CCc1cnc(CNc2ccc(C(=O)N3CCCC(C)C3)cc2C)o1 (stereo unspecified)

>  <RECORDED_MEASUREMENT>
-1.36%

$$$$
>  <COMPOUND>
COC(CNC(=O)N1CCC(n2cncn2)CC1)c1ccccc1 (stereo unspecified)

>  <RECORDED_MEASUREMENT>
-0.684%

$$$$

Q) Any idea what Percent Effect was measured for COc1ccccc1CC1CCCN(CC(N)=O)C1 (stereo unspecified) ?
A) -0.0936%

Q) Any idea what Percent Effect was measured for `Cn1cnc2c1CCN(Cc1nc(COc3ccc(F)cc3)no1)C2` ?
A) -9.01%

Q) Any idea what Percent Effect was measured for `O=C(CCCc1ncc(-c2ccccc2)o1)N1CCN(CCO)CC1` ?
A) -2.7%
